B1: library; a variant is named by its letters at N, in order (parent)
chain: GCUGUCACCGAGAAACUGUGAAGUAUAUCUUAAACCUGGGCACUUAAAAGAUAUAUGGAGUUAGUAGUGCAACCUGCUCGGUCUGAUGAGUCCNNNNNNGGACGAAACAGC

- Variants of: B1
- test.summary: normalized RNA/DNA level with ligand (relative to sTRSVctl = 100) (log10 (% of sTRSVctl)); HEK293T; ligand: cyclic di-GMP (c-di-GMP-II aptamer); ligand concentration (+) RNA-Seq: 1 mM; higher = less ribozyme self-cleavage, higher mRNA level
- experimental.parameters: reporter: mCherry (pCS4076), ligand present: yes
Below is a list of entries, each paired with its recorded normalized RNA/DNA level with ligand (log10) value.
experimental.readout: normalized RNA/DNA level with ligand (log10)

>>> data_value("GUGUCA")
1.85
>>> data_value("GACCUG")
1.81
>>> data_value("GAACAG")
1.82
>>> data_value("AUAGUC")
1.83
>>> data_value("AGCAAA")
1.64
>>> data_value("UCACAC")
1.81
>>> data_value("GCGGCG")
1.9
>>> data_value("GCGUUG")
1.75
>>> data_value("CGAAGC")
1.81
>>> data_value("AUCUGC")
1.88
>>> data_value("AUCGUG")
1.74
